testedOn: EPHB2 (UniProt P29323)
Sequence (P29323 whole entry, looked up): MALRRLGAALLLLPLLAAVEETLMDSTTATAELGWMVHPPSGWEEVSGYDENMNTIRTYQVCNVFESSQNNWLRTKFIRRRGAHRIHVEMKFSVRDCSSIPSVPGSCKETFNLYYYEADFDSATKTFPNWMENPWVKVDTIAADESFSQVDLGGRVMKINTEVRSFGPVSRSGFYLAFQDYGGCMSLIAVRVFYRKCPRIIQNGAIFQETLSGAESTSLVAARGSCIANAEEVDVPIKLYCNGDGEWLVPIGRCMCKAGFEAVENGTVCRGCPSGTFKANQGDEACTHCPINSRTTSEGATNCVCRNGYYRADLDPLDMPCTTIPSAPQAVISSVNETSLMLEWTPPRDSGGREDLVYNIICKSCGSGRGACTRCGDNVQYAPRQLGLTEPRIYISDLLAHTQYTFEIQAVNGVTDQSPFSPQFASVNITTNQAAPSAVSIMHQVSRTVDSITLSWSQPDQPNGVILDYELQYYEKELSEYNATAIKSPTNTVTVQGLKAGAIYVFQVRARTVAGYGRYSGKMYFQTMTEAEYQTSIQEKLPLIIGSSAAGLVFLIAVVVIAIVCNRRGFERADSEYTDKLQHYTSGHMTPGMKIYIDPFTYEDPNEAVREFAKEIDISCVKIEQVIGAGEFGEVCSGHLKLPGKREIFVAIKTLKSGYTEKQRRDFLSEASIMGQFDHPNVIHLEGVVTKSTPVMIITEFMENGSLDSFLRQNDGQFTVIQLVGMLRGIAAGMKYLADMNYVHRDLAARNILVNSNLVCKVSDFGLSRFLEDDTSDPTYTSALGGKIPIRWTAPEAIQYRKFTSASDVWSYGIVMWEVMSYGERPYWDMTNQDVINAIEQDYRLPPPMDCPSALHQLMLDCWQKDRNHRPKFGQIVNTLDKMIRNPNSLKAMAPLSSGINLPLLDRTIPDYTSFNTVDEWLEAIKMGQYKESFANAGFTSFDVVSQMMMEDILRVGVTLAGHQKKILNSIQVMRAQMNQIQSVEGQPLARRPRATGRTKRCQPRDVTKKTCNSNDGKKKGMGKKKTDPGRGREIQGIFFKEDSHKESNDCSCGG
assayName: phosphorylation enrichment, bacterial display (enrichment ratio); higher = better substrate or ligand; peptides without Tyr show the background
# binarize phosphorylation enrichment: threshold 0.6 inclusive, high side Satisfied, low side Not satisfied

QMVGKYASSYM [AVPR2_Y124_M123K] :: Not satisfied
SLNEGYARDFD [FBP1_Y216] :: Not satisfied
FGSLLYKYAFK [FANCD2_Y458] :: Not satisfied
IMVFVYCRVFQ [ADRB2_Y219_S220C] :: Not satisfied
SPQAHYRLSAF [ADAMTS9_Y100_S96P] :: Not satisfied

Req: Is the recorded value of phosphorylation enrichment equal to or greater than 0.6 for this sequence? GKFFQYDTWNQ [IGF2_Y116_K120N]
Resp: Satisfied

###

testedOn: EPHB2 (UniProt P29323)
assayName: phosphorylation enrichment, bacterial display (enrichment ratio); higher = better substrate or ligand; peptides without Tyr show the background
measure: phosphorylation enrichment

Solved cases below.
QGIFGYHHHMQ [UFSP2_Y287_Y290H_YF] :: 0.781
AQQPIYVRVEG [NLRP7_Y318] :: 4.96
GKTQQYDCKWF [BCR_Y751_YF] :: 0.563
FHKALYTVRSF [PDE6C_Y266_YF] :: 0.489
FPPTHYIRRVP [SLC4A11_Y820_YF] :: 0.53

Count: 2. Required value per item: phosphorylation enrichment.
1. IGSQRYKLGVR [RB1_Y446]
2. YTTIHYNYMCN [TP53_Y234_C229Y]

Resp:
1: 0.332; 2: 0.897

###

What phosphorylation enrichment was measured for each of the following?
testedOn: Fyn (UniProt P06241)
Sequence (P06241 whole entry, looked up): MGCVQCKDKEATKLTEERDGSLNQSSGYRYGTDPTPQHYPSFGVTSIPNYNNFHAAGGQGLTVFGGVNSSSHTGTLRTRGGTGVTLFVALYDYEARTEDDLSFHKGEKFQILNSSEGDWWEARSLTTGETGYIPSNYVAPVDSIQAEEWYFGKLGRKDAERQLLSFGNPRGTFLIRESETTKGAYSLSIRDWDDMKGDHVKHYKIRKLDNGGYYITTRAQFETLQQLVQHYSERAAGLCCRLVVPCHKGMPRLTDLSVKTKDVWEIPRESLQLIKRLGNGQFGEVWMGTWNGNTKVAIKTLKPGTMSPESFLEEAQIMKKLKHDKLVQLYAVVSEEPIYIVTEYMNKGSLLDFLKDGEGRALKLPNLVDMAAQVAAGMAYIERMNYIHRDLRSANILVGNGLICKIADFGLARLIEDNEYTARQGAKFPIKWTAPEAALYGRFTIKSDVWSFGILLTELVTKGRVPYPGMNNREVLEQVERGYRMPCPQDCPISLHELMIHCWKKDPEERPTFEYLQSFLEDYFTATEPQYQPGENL
assayName: phosphorylation enrichment, bacterial display (enrichment ratio); higher = better substrate or ligand; peptides without Tyr show the background
Answers are plain numbers.

Solved cases below.
SPRDTYSDRIG [CTPS1_Y567_S571I] :: 0.453
TNRSVYFKPSL [NUP153_Y382] :: 0.421
MEIHAYRKLSE [LMNA_Y376_L380S] :: 0.356
VHNLDYFKQTT [FGFR3_Y647_K650Q_YF] :: 0.652
PLDAEYFTLQI [TP53_Y327_G325A] :: 2.47
LEISPYMLSGP [LRRK2_Y1718_R1723P] :: 3.67

Count: 3. Required value per item: phosphorylation enrichment.
1. TYGVVYRAKDK [CDK11B_Y453]
2. KSIQLYDTPFE [SHB_Y297_G293S_YF]
3. YQEPVYSVAFS [TBL1X_Y509_H504Y]

Resp:
1: 11.6; 2: 1.01; 3: 12.4

Count: 5. Required value per item: phosphorylation enrichment.
1. ALAHKYLGGGG [HBB_Y146_H147L]
2. KGELRYMHSRV [ABCD1_Y281]
3. IPKTWYSAEQF [CD207_Y217]
4. DSFATYFRWVL [H2BW1_Y84_R87W]
5. CEDMEYLESKQ [BTK_Y511_A508D]

Resp:
1: 0.366; 2: 0.303; 3: 0.522; 4: 2.76; 5: 0.494

Count: 6. Required value per item: phosphorylation enrichment.
1. ESMQSYDLDFP [UNC13B_Y243_D238E_YF]
2. PLFKICVAELI [MRPL28_Y230_Y230C]
3. RSSGSYGGGGQ [HNRNPA1_Y341_P340S]
4. GGTTMYPGIAD [ACTC1_Y308]
5. RAEIVYKSPVV [MAPT_Y711_G706R]
6. MNLLGYRHVRS [CHST4_Y359]

Resp:
1. 0.51
2. 0.73
3. 0.539
4. 0.493
5. 0.482
6. 0.403

###

testedOn: FGFR3 (UniProt P22607)
Sequence (P22607 whole entry, looked up): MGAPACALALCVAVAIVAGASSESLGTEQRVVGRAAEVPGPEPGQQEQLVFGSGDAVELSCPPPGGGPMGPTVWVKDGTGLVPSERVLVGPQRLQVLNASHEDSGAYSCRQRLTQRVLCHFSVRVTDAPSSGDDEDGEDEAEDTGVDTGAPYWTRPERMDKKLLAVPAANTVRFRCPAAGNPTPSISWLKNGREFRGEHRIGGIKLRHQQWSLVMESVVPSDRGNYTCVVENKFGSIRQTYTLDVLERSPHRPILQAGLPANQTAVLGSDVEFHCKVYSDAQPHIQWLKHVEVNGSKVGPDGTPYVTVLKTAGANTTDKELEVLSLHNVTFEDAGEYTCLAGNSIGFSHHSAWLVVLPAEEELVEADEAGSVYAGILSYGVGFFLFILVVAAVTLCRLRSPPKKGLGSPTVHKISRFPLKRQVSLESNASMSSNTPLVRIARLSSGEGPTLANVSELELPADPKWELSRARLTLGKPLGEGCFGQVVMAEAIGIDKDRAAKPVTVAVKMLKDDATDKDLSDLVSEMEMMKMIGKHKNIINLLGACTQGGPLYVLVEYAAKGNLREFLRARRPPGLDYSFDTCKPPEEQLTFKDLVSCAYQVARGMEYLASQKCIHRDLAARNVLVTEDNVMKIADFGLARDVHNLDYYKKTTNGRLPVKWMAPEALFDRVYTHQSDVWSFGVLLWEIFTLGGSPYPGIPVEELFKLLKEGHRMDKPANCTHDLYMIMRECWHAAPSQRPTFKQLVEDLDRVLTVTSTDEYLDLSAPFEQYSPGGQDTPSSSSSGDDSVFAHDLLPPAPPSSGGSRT
assayName: phosphorylation enrichment, bacterial display (enrichment ratio); higher = better substrate or ligand; peptides without Tyr show the background
measure: phosphorylation enrichment
Answers are plain numbers.

DDEESYENVPR [FCRL3_Y722_N721S] :: 0.666

Count: 4. Required value per item: phosphorylation enrichment.
1. KFVVVYFRETD [IL17RB_Y447_I451T_YF]
2. GRRNTCFASIA [ACADM_Y352_Y352C_YF]
3. ETESPYQELQG [TYROBP_Y91]
4. VDTAMYATMQR [TPO_Y55]

Resp:
1. 0.734
2. 0.405
3. 0.834
4. 0.507

Count: 4. Required value per item: phosphorylation enrichment.
1. HRGCLYLAIEY [TEK_Y899_Y897C]
2. RFGRKYKKVRF [F8_Y442_I438F]
3. KEDSVYGSQSV [NFKB2_Y868_A867V]
4. IRSGIYFKPES [L2HGDH_Y102_H98R_YF]

Resp:
1.31
0.651
0.557
0.625

###

testedOn: Hck (UniProt P08631)
Sequence (P08631 whole entry, looked up): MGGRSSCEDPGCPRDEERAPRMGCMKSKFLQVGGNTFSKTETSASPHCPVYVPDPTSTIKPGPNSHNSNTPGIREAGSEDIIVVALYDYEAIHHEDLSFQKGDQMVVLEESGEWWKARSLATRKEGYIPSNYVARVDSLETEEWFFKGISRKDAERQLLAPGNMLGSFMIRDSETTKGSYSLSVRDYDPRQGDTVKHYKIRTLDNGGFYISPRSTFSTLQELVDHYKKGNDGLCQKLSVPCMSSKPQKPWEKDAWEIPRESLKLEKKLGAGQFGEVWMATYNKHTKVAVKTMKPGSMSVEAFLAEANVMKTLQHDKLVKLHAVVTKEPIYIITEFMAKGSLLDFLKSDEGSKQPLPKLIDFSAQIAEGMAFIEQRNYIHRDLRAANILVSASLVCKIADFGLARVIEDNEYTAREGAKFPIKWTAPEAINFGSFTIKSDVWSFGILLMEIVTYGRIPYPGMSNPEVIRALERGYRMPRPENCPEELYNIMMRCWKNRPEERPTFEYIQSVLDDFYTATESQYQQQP
assayName: phosphorylation enrichment, bacterial display (enrichment ratio); higher = better substrate or ligand; peptides without Tyr show the background
# binarize phosphorylation enrichment: threshold 0.6 inclusive, high side True, low side False

Below are worked cases with known answers.
EMFNPCYGLFE [NEDD4L_Y679_Y679C] :: True
EQMASYFGHSV [ITGA2B_Y319] :: False
GRQGIYTENKR [GPR143_Y231_E235K] :: False
SILTVYSKDNY [PANK2_Y400_A398T] :: False
RSSGSYGGGGQ [HNRNPA1_Y341_P340S] :: False

Req: Is the recorded value of phosphorylation enrichment equal to or greater than 0.6 for this sequence? KVALPYKPFFF [POLE_Y100_YF]
Resp: False

Req: And then DPGVSYCTREE [PDHA1_Y301_R302C] , what is it?
Resp: True

Req: And then DFLSSYSAVNE [OAT_Y85_Q90E] , what is it?
Resp: False

Req: And then FPKARYRWLVL [APTX_Y214_H215R_YF] , what is it?
Resp: False

Req: And then AVRYIYTIDGS [DCX_Y105_G100A] , what is it?
Resp: True

Req: And then EEETDYTPVWC [UROD_Y30_G25E] , what is it?
Resp: False

Req: And then CSEETYRLMLQ [RET_Y981_M980T] , what is it?
Resp: False

Req: And then "TETGRYEILTE" , what is it?
Resp: False

###

testedOn: Grb2 SH2 (UniProt P62993)
Sequence (P62993 whole entry, looked up): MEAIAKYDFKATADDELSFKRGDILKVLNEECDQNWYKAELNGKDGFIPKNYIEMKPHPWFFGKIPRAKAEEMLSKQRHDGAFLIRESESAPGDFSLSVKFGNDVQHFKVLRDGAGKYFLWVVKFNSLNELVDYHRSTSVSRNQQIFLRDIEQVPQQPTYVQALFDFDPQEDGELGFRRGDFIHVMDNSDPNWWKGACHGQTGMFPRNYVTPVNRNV
assayName: SH2 binding enrichment of the phosphorylated peptide, bacterial display (enrichment ratio); higher = better substrate or ligand; peptides without Tyr show the background
What SH2 binding enrichment was measured for each of the following?
One number for each entry.

FAKTQYPDIFA [CRX_Y63_V66I_YF] :: 0.849
IVAREYYSEAD [CAMK2A_Y106] :: 0.886
AIMSFYAALIN [RYR1_Y2426_D2431N] :: 0.996
NTYEKYLGEEY [TF_Y669] :: 0.971
SRPTQYSSFSC [SPEM2_Y104] :: 2.26

Count: 2. Required value per item: SH2 binding enrichment.
1. RRESQYQENRG [LRCH3_Y354]
2. RSGIYYKPESL [L2HGDH_Y103_H98R]

Resp:
[0.982, 0.935]

###

testedOn: Jak2 (UniProt O60674)
Sequence (O60674 whole entry, looked up): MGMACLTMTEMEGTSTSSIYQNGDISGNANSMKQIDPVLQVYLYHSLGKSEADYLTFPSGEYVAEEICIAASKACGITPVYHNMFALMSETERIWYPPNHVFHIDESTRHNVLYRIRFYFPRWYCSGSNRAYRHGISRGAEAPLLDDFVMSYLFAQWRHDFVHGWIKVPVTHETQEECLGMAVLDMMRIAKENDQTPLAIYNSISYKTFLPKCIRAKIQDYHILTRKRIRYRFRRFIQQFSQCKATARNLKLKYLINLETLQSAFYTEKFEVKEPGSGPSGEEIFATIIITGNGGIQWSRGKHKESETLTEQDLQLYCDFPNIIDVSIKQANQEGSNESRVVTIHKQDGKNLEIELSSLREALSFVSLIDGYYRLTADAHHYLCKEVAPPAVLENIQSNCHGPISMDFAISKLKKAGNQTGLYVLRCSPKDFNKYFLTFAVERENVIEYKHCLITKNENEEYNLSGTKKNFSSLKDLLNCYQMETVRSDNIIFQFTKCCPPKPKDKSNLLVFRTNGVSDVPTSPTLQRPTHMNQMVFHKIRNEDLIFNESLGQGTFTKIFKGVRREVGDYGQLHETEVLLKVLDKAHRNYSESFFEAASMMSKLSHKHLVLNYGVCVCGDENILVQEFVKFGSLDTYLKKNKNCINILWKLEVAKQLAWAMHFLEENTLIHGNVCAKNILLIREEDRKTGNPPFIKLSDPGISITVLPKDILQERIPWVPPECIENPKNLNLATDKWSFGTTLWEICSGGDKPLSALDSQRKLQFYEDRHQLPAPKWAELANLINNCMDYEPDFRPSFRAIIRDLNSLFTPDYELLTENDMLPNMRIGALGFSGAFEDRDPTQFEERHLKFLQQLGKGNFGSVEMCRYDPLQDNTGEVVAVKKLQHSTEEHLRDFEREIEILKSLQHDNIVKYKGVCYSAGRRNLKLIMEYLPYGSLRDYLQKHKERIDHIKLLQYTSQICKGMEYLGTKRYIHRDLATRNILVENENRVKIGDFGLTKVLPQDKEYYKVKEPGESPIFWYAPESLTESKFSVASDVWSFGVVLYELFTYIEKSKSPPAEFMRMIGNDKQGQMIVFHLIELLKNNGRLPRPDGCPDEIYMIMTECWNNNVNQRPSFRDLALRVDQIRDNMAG
assayName: phosphorylation enrichment, bacterial display (enrichment ratio); higher = better substrate or ligand; peptides without Tyr show the background
What phosphorylation enrichment was measured for each of the following?
Numbers only.

FRQNVYIPGSN [PCDHGA1_Y895_YF] :: 0.584
CTTIHYNHMCN [TP53_Y234_Y236H] :: 0.688
FAASSYSFSDL [EMD_Y59_S54F] :: 0.849

Count: 4. Required value per item: phosphorylation enrichment.
1. LDYNEYFRYLN [HPRT1_Y198_D201Y]
2. AGREEYSAMRD [KRAS_Y64_Q61R]
3. EEQKRYYNAMK [SCN5A_Y1494_K1493R]
4. TFGQVYKGRHV [TNIK_Y40_YF]

Resp:
1: 7.21; 2: 0.686; 3: 0.479; 4: 0.598

###

testedOn: FGFR3 (UniProt P22607)
assayName: phosphorylation enrichment, bacterial display (enrichment ratio); higher = better substrate or ligand; peptides without Tyr show the background
# binarize phosphorylation enrichment: threshold 0.8 inclusive, high side true (1), low side false (0)

Below are worked cases with known answers.
GHMYAYDWISI [BEST1_Y227_L224M] :: true (1)
NTGLEYIKFTW [HRH1_Y386_D385E] :: true (1)
VMSMNYRVGAL [BCHE_Y174_V170M] :: false (0)
SVTYTYSPALN [TP53_Y126_C124Y] :: true (1)

We now examine a further sequence.
Req: Is the recorded value of phosphorylation enrichment equal to or greater than 0.8 for this sequence? RRESQYQENRG [LRCH3_Y354]
Resp: false (0)
